This section presents compounds with their documented viability, T/C values.
Test system: 885512-296-R-J2-PDC complex spheroid growth, % test/control
Experiment: Anticancer human tumor 885512-296-R-J2-PDC patient-derived breast carcinoma cell line growth inhibition [AhR]
Details: second compound 1 µM; first compound 0.0316 µM; stronger effect = lower value
Only the number, expressed in %, is required.

// solved cases for viability, T/C follow
COc1cc(Nc2ncc3c(n2)-c2ccc(Cl)cc2C(c2c(F)cccc2OC)=NC3)ccc1C(=O)O + Cc1ccccc1N=Nc1ccc(NC(=O)c2ccnn2C)c(C)c1
56.8
CC1COCCN1c1cc(C2(S(C)(=N)=O)CC2)nc(-c2ccnc3[nH]ccc23)n1 (stereo unspecified) + Cc1ccccc1N=Nc1ccc(NC(=O)c2ccnn2C)c(C)c1
108
Cn1ncnc1C1c2n[nH]c(=O)c3cc(F)cc(c23)NC1c1ccc(F)cc1 (stereo unspecified) + Cc1cncc(-c2nc(NCCc3c[nH]c4ccccc34)c3ncn(C(C)C)c3n2)c1
68.3
CC1(C)CCC(CN2CCN(c3ccc(C(=O)NS(=O)(=O)c4ccc(NCC5CCOCC5)c([N+](=O)[O-])c4)c(Oc4cnc5[nH]ccc5c4)c3)CC2)=C(c2ccc(Cl)cc2)C1 + Cc1ccccc1N=Nc1ccc(NC(=O)c2ccnn2C)c(C)c1
97.9
CC(C)c1c(-c2ccccc2)nc2c(C#N)c[nH]n2c1=O + Cc1cncc(-c2nc(NCCc3c[nH]c4ccccc34)c3ncn(C(C)C)c3n2)c1
94.5
Nc1ccn(C2OC(CO)C(O)C2(F)F)c(=O)n1 (stereo unspecified) + Cc1ccccc1N=Nc1ccc(NC(=O)c2ccnn2C)c(C)c1
3.39
CC1(C)CCC(CN2CCN(c3ccc(C(=O)NS(=O)(=O)c4ccc(NCC5CCOCC5)c([N+](=O)[O-])c4)c(Oc4cnc5[nH]ccc5c4)c3)CC2)=C(c2ccc(Cl)cc2)C1 + Cc1cncc(-c2nc(NCCc3c[nH]c4ccccc34)c3ncn(C(C)C)c3n2)c1
87.5
Nc1ccn(C2OC(CO)C(O)C2(F)F)c(=O)n1 (stereo unspecified) + Cc1cncc(-c2nc(NCCc3c[nH]c4ccccc34)c3ncn(C(C)C)c3n2)c1
3.48

Query string: Given the compound COc1cc(C2c3cc4c(cc3C(OC3OC5COC(C)OC5C(O)C3O)C3COC(=O)C23)OCO4)cc(OC)c1O (stereo unspecified) + Cc1ccccc1N=Nc1ccc(NC(=O)c2ccnn2C)c(C)c1 , write its reported viability, T/C.
Result string: 96.2

Query string: Given the compound NS(=O)(=O)OCC1CC(n2ccc3c(NC4CCc5ccccc54)ncnc32)CC1O (stereo unspecified) + Cc1ccccc1N=Nc1ccc(NC(=O)c2ccnn2C)c(C)c1 , write its reported viability, T/C.
Result string: 96.5

Query string: Given the compound CC1(C)CCC(CN2CCN(c3ccc(C(=O)NS(=O)(=O)c4ccc(NCC5CCOCC5)c([N+](=O)[O-])c4)c(Oc4cnc5[nH]ccc5c4)c3)CC2)=C(c2ccc(Cl)cc2)C1 + CC(CO)NC(=O)c1cc(-c2ccc(Cl)cc2)nn(-c2cnn(C)c2)c1=O , write its reported viability, T/C.
Result string: 96.7

* * *

System: 885512-296-R-J2-PDC complex spheroid growth, % test/control
Experiment: Anticancer human tumor 885512-296-R-J2-PDC cell line growth inhibition [AhR];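 further: spheroids exposed to compounds for seven days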
Details: second compound 0.316 µM; first compound 0.00949 µM; stronger effect = lower value
measured_attribute: viability, T/C

// solved cases for viability, T/C follow
Nc1ncn(C2CC(O)C(CO)S2)c(=O)n1 (stereo not drawn) + CC(CO)NC(=O)c1cc(-c2ccc(Cl)cc2)nn(-c2cnn(C)c2)c1=O
146%
CCN(c1cc(-c2ccc(CN3CCOCC3)cc2)cc(C(=O)NCc2c(C)cc(C)[nH]c2=O)c1C)C1CCOCC1 + Cc1ccccc1N=Nc1ccc(NC(=O)c2ccnn2C)c(C)c1
117%

Next:
Query string: Given the compound CCN(c1cc(-c2ccc(CN3CCOCC3)cc2)cc(C(=O)NCc2c(C)cc(C)[nH]c2=O)c1C)C1CCOCC1 + CC(CO)NC(=O)c1cc(-c2ccc(Cl)cc2)nn(-c2cnn(C)c2)c1=O , write its reported viability, T/C.
Result string: 106%

* * *

Tested on: 885512-296-R-J2-PDC complex spheroid growth, % test/control
Test: Anticancer human tumor 885512-296-R-J2-PDC cell line growth inhibition [AhR];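 further: spheroids exposed to compounds for seven days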
Conditions: second compound 1 µM; first compound 0.003 µM; stronger effect = lower value
This section presents compounds with their documented viability, T/C values.
Only the number, expressed in %, is required.

CC(C)CC(NC(=O)C(Cc1ccccc1)NC(=O)c1cnccn1)B(O)O (centres undefined) + CC(CO)NC(=O)c1cc(-c2ccc(Cl)cc2)nn(-c2cnn(C)c2)c1=O
94
CC(C)CC(NC(=O)C(Cc1ccccc1)NC(=O)c1cnccn1)B(O)O (centres undefined) + Cc1ccccc1N=Nc1ccc(NC(=O)c2ccnn2C)c(C)c1
101
Nc1ncn(C2CC(O)C(CO)S2)c(=O)n1 (centres undefined) + CC(CO)NC(=O)c1cc(-c2ccc(Cl)cc2)nn(-c2cnn(C)c2)c1=O
104
CCc1c2c(nc3ccc(O)cc13)-c1cc3c(c(=O)n1C2)COC(=O)[C@]3(O)CC + CC(CO)NC(=O)c1cc(-c2ccc(Cl)cc2)nn(-c2cnn(C)c2)c1=O
7.68
Nc1ncn(C2CC(O)C(CO)S2)c(=O)n1 (centres undefined) + Cc1cncc(-c2nc(NCCc3c[nH]c4ccccc34)c3ncn(C(C)C)c3n2)c1
67.8
CC(C)CC(NC(=O)C(Cc1ccccc1)NC(=O)c1cnccn1)B(O)O (centres undefined) + Cc1cncc(-c2nc(NCCc3c[nH]c4ccccc34)c3ncn(C(C)C)c3n2)c1
87.7
CCc1c2c(nc3ccc(O)cc13)-c1cc3c(c(=O)n1C2)COC(=O)[C@]3(O)CC + Cc1cncc(-c2nc(NCCc3c[nH]c4ccccc34)c3ncn(C(C)C)c3n2)c1
10.2
Nc1ncn(C2CC(O)C(CO)S2)c(=O)n1 (centres undefined) + Cc1ccccc1N=Nc1ccc(NC(=O)c2ccnn2C)c(C)c1
131

Next:
Query string: Given the compound CCc1c2c(nc3ccc(O)cc13)-c1cc3c(c(=O)n1C2)COC(=O)[C@]3(O)CC + Cc1ccccc1N=Nc1ccc(NC(=O)c2ccnn2C)c(C)c1 , write its reported viability, T/C.
Result string: 6.58

* * *

This section presents molecules with their documented viability, T/C values.
Tested on: 885512-296-R-J2-PDC complex spheroid growth, % test/control
Assay: Anticancer human tumor 885512-296-R-J2-PDC cell line growth inhibition [AhR];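 further: spheroids exposed to compounds for seven days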
Conditions: second compound 0.1 µM; first compound 0.1 µM; stronger effect = lower value
Only the number, expressed in %, is required.

COc1cc(C2c3cc4c(cc3C(OC3OC5COC(C)OC5C(O)C3O)C3COC(=O)C23)OCO4)cc(OC)c1O (stereo unspecified) + CC(CO)NC(=O)c1cc(-c2ccc(Cl)cc2)nn(-c2cnn(C)c2)c1=O
106
CC1COCCN1c1cc(-c2ccnn2C)c2ccnc(-c3ccn[nH]3)c2n1 (stereo unspecified) + CC(CO)NC(=O)c1cc(-c2ccc(Cl)cc2)nn(-c2cnn(C)c2)c1=O
10.4
Nc1ccn(C2OC(CO)C(O)C2(F)F)c(=O)n1 (stereo unspecified) + Cc1ccccc1N=Nc1ccc(NC(=O)c2ccnn2C)c(C)c1
3.21
Nc1ncn(C2CC(O)C(CO)O2)c(=O)n1 (stereo unspecified) + Cc1ccccc1N=Nc1ccc(NC(=O)c2ccnn2C)c(C)c1
106

Query string: Given the molecule O=C(c1cc(Cc2n[nH]c(=O)c3ccccc23)ccc1F)N1CCN(C(=O)C2CC2)CC1 + Cc1ccccc1N=Nc1ccc(NC(=O)c2ccnn2C)c(C)c1 , write its reported viability, T/C.
Result string: 135

Query string: Given the molecule COc1cccc2c1C(=O)c1c(O)c3c(c(O)c1C2=O)CC(O)(C(=O)CO)CC3OC1CC(N)C(O)C(C)O1 (stereo unspecified) + Cc1cncc(-c2nc(NCCc3c[nH]c4ccccc34)c3ncn(C(C)C)c3n2)c1 , write its reported viability, T/C.
Result string: 15.2

* * *

Tested on: 885512-296-R-J2-PDC complex spheroid growth, % test/control
Test: Anticancer human tumor 885512-296-R-J2-PDC cell line growth inhibition [AhR];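 further: spheroids exposed to compounds for seven days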
Conditions: second compound 0.316 µM; first compound 0.316 µM; stronger effect = lower value
measured_attribute: viability, T/C

// solved cases for viability, T/C follow
CC(C)c1c(-c2ccccc2)nc2c(C#N)c[nH]n2c1=O + CC(CO)NC(=O)c1cc(-c2ccc(Cl)cc2)nn(-c2cnn(C)c2)c1=O
104%
CC(C)c1c(-c2ccccc2)nc2c(C#N)c[nH]n2c1=O + Cc1cncc(-c2nc(NCCc3c[nH]c4ccccc34)c3ncn(C(C)C)c3n2)c1
105%
O=C(C=Cc1cccc(S(=O)(=O)Nc2ccccc2)c1)NO + CC(CO)NC(=O)c1cc(-c2ccc(Cl)cc2)nn(-c2cnn(C)c2)c1=O
79.4%
COc1ccc([C@@H](O)c2cc(-c3ncnc4cc(N5CCOCC5)ccc34)c(F)cc2Cl)nn1 + CC(CO)NC(=O)c1cc(-c2ccc(Cl)cc2)nn(-c2cnn(C)c2)c1=O
82.8%

Query string: Given the molecule CC1(C)CCC(CN2CCN(c3ccc(C(=O)NS(=O)(=O)c4ccc(NCC5CCOCC5)c([N+](=O)[O-])c4)c(Oc4cnc5[nH]ccc5c4)c3)CC2)=C(c2ccc(Cl)cc2)C1 + Cc1cncc(-c2nc(NCCc3c[nH]c4ccccc34)c3ncn(C(C)C)c3n2)c1 , write its reported viability, T/C.
Result string: 97%

Query string: Given the molecule Nc1ccccc1NC(=O)c1ccc(CNC(=O)OCc2cccnc2)cc1 + Cc1ccccc1N=Nc1ccc(NC(=O)c2ccnn2C)c(C)c1 , write its reported viability, T/C.
Result string: 68.8%
